Cited source for all entries: PubChem BioAssay

Experiment: viability gain of MRP-1-high H69AR cells under doxorubicin, pilot screen, MRP-1 activator project, CellTiter-Glo, duplicate (AID 807);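 also: compound pretreatment 18-22 h then 72 h combined with doxorubicin; 0% = doxorubicin alone and 100% = vehicle without doxorubicin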
Conditions: H69AR viability with doxorubicin, CellTiter-Glo luminescence; at 10 µM; hits give high values
Can you tell me viability increase for the items I'm about to list?
Numeric only. Scale: %

Which viability increase is reported for this compound? `Cc1cc(NC(=O)CSc2c(C)[nH]c3ccccc23)no1`
-1.25

Request the reported viability increase associated with COC(=O)NCC(c1cccnc1)N1CCN(c2ccccc2F)CC1 (stereo unspecified)
-0.18

Recorded viability increase for `Cc1cc(Nc2cccc(C)c2C)n2ncnc2n1` , please?
-0.81

Quick one: viability increase of `CCOC(=O)NC(Nc1ccc(C)cn1)(C(F)(F)F)C(F)(F)F` ?
-1.59

Quick one: viability increase of CCn1c(SCC(=O)Nc2nnc(C)s2)nc2c(c1=O)SC(C)C2 (stereo unspecified) ?
1.14

What value of viability increase has been reported for the following compound? `Cc1ccc(OCC(=O)n2nc(C)cc2C)c(Br)c1`
-2.35
